# subject of test: Cytochrome P450 2D6 (Homo sapiens, UniProt P10635)
# Sequence (P10635 whole entry): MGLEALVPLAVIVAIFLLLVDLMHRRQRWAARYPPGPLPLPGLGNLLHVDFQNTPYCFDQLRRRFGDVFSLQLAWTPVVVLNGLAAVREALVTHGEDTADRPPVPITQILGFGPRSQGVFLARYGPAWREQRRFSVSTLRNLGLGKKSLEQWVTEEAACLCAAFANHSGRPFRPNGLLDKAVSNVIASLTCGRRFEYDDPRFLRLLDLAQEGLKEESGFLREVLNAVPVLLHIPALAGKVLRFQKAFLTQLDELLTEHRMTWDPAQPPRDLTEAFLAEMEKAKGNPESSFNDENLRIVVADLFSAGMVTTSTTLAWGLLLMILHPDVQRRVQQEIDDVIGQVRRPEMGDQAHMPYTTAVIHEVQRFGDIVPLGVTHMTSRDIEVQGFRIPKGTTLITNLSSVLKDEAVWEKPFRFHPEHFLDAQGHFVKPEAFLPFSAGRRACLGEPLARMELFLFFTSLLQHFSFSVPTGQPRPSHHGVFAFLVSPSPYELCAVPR
test readout: IC50

Task: Determine its reported IC50: `CN1CCc2c(c3ccc(-n4ccc(OCc5ccccc5)cc4=O)cc3n2C)C1`
Output: > 10 µM

###

# protocol details: Plasma protein binding in DIO mouse at 30 mg/kg, po
# Format: ADME, organism-based
# Parameters: dose 30 mg/kg, route oral
# reported conditions: read-out: PPB (converted)
Each record here notes measured fraction unbound.
Please respond with just the number, no unit label.

As a guide, the following entries are already answered.
Cn1c2c(c3ccc(-n4ccc(OCc5ccccc5)cc4=O)cc31)CCNC2 0.059
CN1CCc2c(c3ccc(-n4ccc(OCc5ccccc5)cc4=O)cc3n2C)C1 0.016

Now consider a different molecule.
Task: Report fraction unbound for `O=c1cc(OCc2ccccc2)ccn1-c1ccc2c(cnn2CCN2CCCC2)c1`
Output: 0.086

###

# protocol details: Aqueous solubility of the compound in PBS buffer at pH 7.4 after 24 hrs
# Format: physicochemical
test readout: solubility at 24 h (µM)
Value expressed in µM; do not type the unit.

// solved cases for solubility at 24 h follow
CN1CCc2c(n(C)c3cc(-n4ccc(OCc5ccccc5)cc4=O)ccc23)C1 93
Cn1c2c(c3ccc(-n4ccc(OCc5ccccc5)cc4=O)cc31)CNCC2 470

Next compound, please.
Task: Give solubility at 24 h for `CN1CCc2c(c3ccc(-n4ccc(OCc5ccccc5)cc4=O)cc3n2C)C1`
Output: 110

###

# protocol details: Half life in human liver microsome
# Assay type: ADME
# reported conditions: liver microsomes
test readout: half-life (h)
Give the value in h but do not write h after it.

Answered cases to consult:
CN1CCc2c(c3ccc(-n4ccc(OCc5ccccc5)cc4=O)cc3n2C)C1 12.8
Cn1c2c(c3ccc(-n4ccc(OCc5ccccc5)cc4=O)cc31)CCNC2 7.5

Let us move to another entry and its half-life.
Task: For `Cn1c2c(c3ccc(-n4ccc(OCc5ccccc5)cc4=O)cc31)CNCC2` , write its half-life.
Output: 7.7

###

# protocol details: AUC (0 to 6 hrs) in DIO mouse at 30 mg/kg, po
# Assay type: ADME, organism-based
# Parameters: time < 6 hr, dose 30 mg/kg, route oral
# reported conditions: plasma
test readout: AUC(0-t) at 6 h (ng·h/mL)
Return type: number; implicit unit ng·h/mL.

Cn1c2c(c3ccc(-n4ccc(OCc5ccccc5)cc4=O)cc31)CCNC2 41300
O=c1cc(OCc2ccccc2)ccn1-c1ccc2c(cnn2CCN2CCCC2)c1 14800

Task: Name the recorded AUC(0-t) at 6 h of the item `CN1CCc2c(c3ccc(-n4ccc(OCc5ccccc5)cc4=O)cc3n2C)C1` in your answer.
Output: 27000

###

# protocol details: Ionisation constant for the compound
# Format: physicochemical
Entries annotated with measured pKa

Cn1c2c(c3ccc(-n4ccc(OCc5ccccc5)cc4=O)cc31)CCNC2 8.81

Task: State its pKa: `O=c1cc(OCc2ccccc2)ccn1-c1ccc2c(cnn2CCN2CCCC2)c1`
Output: 8.63

###

# subject of test: Cytochrome P450 1A2 (Homo sapiens, UniProt P05177)
# Sequence (P05177 whole entry): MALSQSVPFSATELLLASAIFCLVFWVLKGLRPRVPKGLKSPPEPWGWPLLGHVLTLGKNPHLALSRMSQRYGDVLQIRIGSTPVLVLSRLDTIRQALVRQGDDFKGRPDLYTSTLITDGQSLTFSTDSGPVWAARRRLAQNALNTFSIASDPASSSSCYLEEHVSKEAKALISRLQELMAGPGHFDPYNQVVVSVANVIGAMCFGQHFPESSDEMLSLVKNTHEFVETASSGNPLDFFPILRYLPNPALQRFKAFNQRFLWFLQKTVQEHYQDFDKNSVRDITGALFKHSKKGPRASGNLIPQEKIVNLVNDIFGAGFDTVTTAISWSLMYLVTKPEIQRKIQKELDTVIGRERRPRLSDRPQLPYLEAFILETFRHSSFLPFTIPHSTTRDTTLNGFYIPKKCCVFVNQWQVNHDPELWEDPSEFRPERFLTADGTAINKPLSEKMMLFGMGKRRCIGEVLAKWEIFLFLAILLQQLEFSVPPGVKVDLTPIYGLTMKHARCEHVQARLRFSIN
test readout: IC50

CN1CCc2c(n(C)c3cc(-n4ccc(OCc5ccccc5)cc4=O)ccc23)C1 > 10 µM

# ---- query molecule ----
Task: Annotate the molecule `CN1CCc2c(c3ccc(-n4ccc(OCc5ccccc5)cc4=O)cc3n2C)C1` with its measured IC50.
Output: > 10 µM
